Each entry below carries its reported T/C.
- System: CD2F1 mice, intracerebral P388 leukemia, median survival T/C%
- procedure summary: NCI In Vivo Anticancer Drug Screen. Data for tumor model P388 Leukemia (intracerebral) in CD2F1 (CDF1) mice
- condition description: endpoint: median survival time; dose: 128.0 mg/kg/injection; schedule: Q01DX009 (ip); vehicle: saline with Tween-80; higher = longer survival
Inconclusive results and toxic doses are left out.

// Input: CC(=O)OCC1C(=O)OCC1C(=O)N1Cc2cc3ccccc3nc2C1 (centres undefined) . Output its T/C only.
96 % of control

Input "CCCCCC(=O)O[C@]1(C(C)=O)CC[C@H]2[C@@H]3CCC4=CC(=O)CC[C@]4(C)[C@H]3CC[C@@]21C" , output reported T/C.
107 % of control

Specify T/C for "CCC(=O)O[C@H]1CC[C@H]2[C@@H]3CCC4=CC(=O)CC[C@]4(C)[C@H]3CC[C@]12C" and stop.
100 % of control

Consider the molecule "CC/C(=C(/CC)c1ccc(O)cc1)c1ccc(O)cc1" . State its measured T/C.
115 % of control

----------
Reported T/C values for a set of compounds
- System: CD2F1 mice, intracerebral P388 leukemia, median survival T/C%
- procedure summary: NCI In Vivo Anticancer Drug Screen. Data for tumor model P388 Leukemia (intracerebral) in CD2F1 (CDF1) mice
- condition description: endpoint: median survival time; dose: 12.5 mg/kg/injection; schedule: Q01DX009 (ip); vehicle: saline with Tween-80; higher = longer survival
- Experimental: The antitumor activity of compounds was measured in mice bearing transplantable tumors. Survival or tumor size were measured and the results are expressed as the measurement made in the treated group (T) divided by the measurement made in the vehicle treated control group (C). The tumor model used in this assay is P388 Leukemia (intracerebral) in CD2F1 (CDF1) mice
Toxic doses and inconclusive results are not listed.

Take a look at these entries with their results.
compound: CN=S(=O)(OCCCCCOS(=O)(=NC)c1ccccc1)c1ccccc1 (stereo unspecified)
tested on: CD2F1 mice, intracerebral P388 leukemia, median survival T/C%
T/C: 100 % of control
--
compound: CC1(CO)C(O)CCC2(C)C1CCC1CC3CC12CCC3(O)CO (stereo unspecified)
tested on: CD2F1 mice, intracerebral P388 leukemia, median survival T/C%
T/C: 94 % of control
--
compound: CC1(C)N=C(N)N=C(N)N1c1ccc(CCCCc2ccc(S(=O)(=O)F)cc2Cl)c(Cl)c1
tested on: CD2F1 mice, intracerebral P388 leukemia, median survival T/C%
T/C: 97 % of control
--
compound: Cc1cnc(/C=N\NC(N)=S)c2cccc(N)c12
tested on: CD2F1 mice, intracerebral P388 leukemia, median survival T/C%
T/C: 99 % of control
--
compound: CC(C)(C)N1CC1CNC(=O)C(=O)NCC1CN1C(C)(C)C (stereo unspecified)
tested on: CD2F1 mice, intracerebral P388 leukemia, median survival T/C%
T/C: 177 % of control

Continue with the compound presented below.
Output T/C of "Cc1cc(NC(=O)NCc2ccc(N3C(N)=NC(N)=NC3(C)C)cc2)ccc1S(=O)(=O)F"
105 % of control

----------
Examples of molecules with documented T/C follow.
- Test system: CD2F1 mice, intracerebral P388 leukemia, median survival T/C%
- procedure summary: NCI In Vivo Anticancer Drug Screen. Data for tumor model P388 Leukemia (intracerebral) in CD2F1 (CDF1) mice
- condition description: endpoint: median survival time; dose: 16.0 mg/kg/injection; schedule: Q01DX009 (ip); vehicle: saline with Tween-80; higher = longer survival
Toxic doses and inconclusive results are not listed.

Worked examples, 4 molecules total:
molecule: C#C[C@]1(O)CC[C@H]2[C@@H]3CCc4cc(O)ccc4[C@H]3CC[C@@]21C
tested on: CD2F1 mice, intracerebral P388 leukemia, median survival T/C%
T/C: 95 % of control

molecule: CC(=O)OCC1C(=O)OCC1C(=O)N1Cc2cc3ccccc3nc2C1 (stereo not given)
tested on: CD2F1 mice, intracerebral P388 leukemia, median survival T/C%
T/C: 96 % of control

molecule: CCC(=O)O[C@H]1CC[C@H]2[C@@H]3CCC4=CC(=O)CC[C@]4(C)[C@H]3CC[C@]12C
tested on: CD2F1 mice, intracerebral P388 leukemia, median survival T/C%
T/C: 108 % of control

molecule: CCCCCC(=O)O[C@]1(C(C)=O)CC[C@H]2[C@@H]3CCC4=CC(=O)CC[C@]4(C)[C@H]3CC[C@@]21C
tested on: CD2F1 mice, intracerebral P388 leukemia, median survival T/C%
T/C: 100 % of control

We now examine a further molecule.
Write down T/C measured for item "CC/C(=C(/CC)c1ccc(O)cc1)c1ccc(O)cc1"
106 % of control
